These measurements were taken from PubChem BioAssay (NCI).

System: MDA-MB-435 melanoma
Experiment: NCI-60 one-dose screen, 48 h
Details: 10 µM unless noted
Compounds without any hit were thinned out: in the full panel of roughly 83,000, 20% have a hit. Activity calls are given as the source filed them. How the source made its calls: active means growth percent below 10; inactive means the rest.
Respond only with the outcome that fits, drawn from active, inactive

Q. In this assay, the call recorded for `O=C(NO)c1ccc(Cn2c(=O)n(CCc3ccc(O)cc3)c(=O)c3ccccc32)cc1` was what?
A. active

Q. Query `C=C(C)[C@@H]1CC[C@]2(C)[C@H](CC[C@@H]3[C@H]4[C@H]5OC[C@@]4(CCC5(C)C)CC[C@]32C)[C@@]1(C)CCCN` next
A. inactive

Q. Let us now turn to `Nc1ccccc1NC(=O)c1ccc(CN2CCC/C(=C\c3ccccn3)C2=O)cc1`
A. active

Q. # repeat for `CC(=O)c1c(C)[nH]c(-c2nc3ccc(N4CCN(C)CC4)cc3[nH]2)c1-c1ccc(N(C)C)cc1`
A. inactive

Q. Same question, `CCCCC[C@H]1C/C=C2/C(=O)C(Cl)=C[C@@H]2C/C=C\CCCC(=O)O1` this time
A. active

Q. Let us now turn to `O=C(CCCCCn1c2ccccc2c2c3c(c4c5ccccc5[nH]c4c21)C(=O)N(O)C3=O)N1CCOCC1`
A. inactive

Q. Now consider `Nc1ccc(Cl)cn1` .
A. inactive

Q. Again, but for `Cc1cccc2c1NC(=O)[C@@]21[C@H](C(=O)c2ccccc2)[C@]2(C(=O)Nc3ccccc32)[C@H]2CCCN21`
A. inactive

Q. Follow-up item: `Cc1cc(N(CCNc2ccnc3cc(Cl)ccc23)Cc2ccco2)nc(Cl)n1`
A. inactive

Q. Try `C=C(C)[C@@H]1CC[C@]2(/C=N/Nc3ccncc3)CC[C@]3(C)[C@H](CC[C@@H]4[C@@]5(C)CCCNC(C)(C)[C@@H]5CC[C@]43C)[C@@H]12` next.
A. inactive

Q. Input `CC(=O)n1c(/C(C#N)=C/c2ccc(N(C)C)cc2)cc2ccccc21`
A. active

Q. # repeat for `O=[N+]([O-])c1ccc(/C=N\Nc2ccccc2)cc1`
A. inactive

Q. What do you have for `COC(c1ccccc1)(c1ccccc1)c1ccccc1` ?
A. inactive

Q. Next up: `COc1cccc(-c2nn(-c3ccccc3)cc2-c2ccnc(NCCCNS(=O)(=O)c3ccc(Cl)cc3)c2)c1`
A. inactive

Q. Subsequent entry: `O=C(O[C@@H]1Cc2c(O)cc(O)cc2O[C@@H]1c1cc(O)c(O)c(O)c1)c1cc(O)c2c(c1)OCO2`
A. inactive

Q. Now consider `Cc1cc(C)n(Cc2cc(C(C)(C)C)cc(C(C)(C)C)c2)c(=O)c1C#N` and answer again.
A. inactive
